These entries and their values trace back to patent US9376382B2.

Below, each entry is listed with its recorded Melting point Day 10.
Test: Intense light irradiation test (4500LX ± 500LX), stability study
Format: physicochemical
Details: Day 10

Please review the entries below; each comes with its answer.
compound	experimental result
Cc1ccc(NS(=O)(=O)c2cc(C)c3cc(C(C)C)ccc(C)c2-3)cc1	143.5-147.5 °C
CCNS(=O)(=O)c1cc(C)c2cc(C(C)C)ccc(C)c1-2	121.0-126.0 °C
Cc1cc(S(=O)(=O)NC(C)C)c2c(C)ccc(C(C)C)cc1-2	125.0-126.5 °C

Tell us which Melting point Day 10 value is on record for Cc1cc(S(=O)(=O)Nc2cccc(Br)c2)c2c(C)ccc(C(C)C)cc1-2
173.0-174.0 °C

Tell us which Melting point Day 10 value is on record for Cc1cc(S(=O)(=O)[O-])c2c(C)ccc(C(C)C)cc1-2.[Na+] [Azulene sulfonate sodium, reference compound]
98.54-103.5 °C

---

Experiment: Intense light irradiation test (4500LX ± 500LX), stability study
Format: physicochemical
Details: Day 5
property measured: Melting point Day 5

Please review the entries below; each comes with its answer.
compound	property measured	experimental result
Cc1cc(S(=O)(=O)Nc2ccc(Cl)cc2)c2c(C)ccc(C(C)C)cc1-2	Melting point Day 5	134.0-135.5 °C
Cc1cc(S(=O)(=O)Nc2ccc(N)cc2)c2c(C)ccc(C(C)C)cc1-2	Melting point Day 5	87.5-89.0 °C
Cc1cc(S(=O)(=O)NC(C)C)c2c(C)ccc(C(C)C)cc1-2	Melting point Day 5	127.0-129.5 °C
Cc1cc(S(=O)(=O)Nc2cccc(Br)c2)c2c(C)ccc(C(C)C)cc1-2	Melting point Day 5	172.0-175.0 °C
CCCNS(=O)(=O)c1cc(C)c2cc(C(C)C)ccc(C)c1-2	Melting point Day 5	58.5-62.0 °C
CCNS(=O)(=O)c1cc(C)c2cc(C(C)C)ccc(C)c1-2	Melting point Day 5	122.0-125.5 °C
Cc1cc(S(=O)(=O)[O-])c2c(C)ccc(C(C)C)cc1-2.[Na+] [Azulene sulfonate sodium, reference compound]	Melting point Day 5	102.5-105.5 °C
Cc1cc(S(=O)(=O)Nc2cccc3ccccc23)c2c(C)ccc(C(C)C)cc1-2	Melting point Day 5	141.5-143.0 °C

Tell us which Melting point Day 5 value is on record for Cc1cc(S(=O)(=O)NCC(C)C)c2c(C)ccc(C(C)C)cc1-2
117.5-118.0 °C

---

Experiment: High humidity test (25° C., relative humidity 90% ± 5%), stability study
Assay type: physicochemical
Details: RH 90% ± 5%, Day 0
Below, each entry is listed with its recorded Melting point Day 0.

Please review the entries below; each comes with its answer.
molecule	experimental result
Cc1cc(S(=O)(=O)NCc2ccccc2)c2c(C)ccc(C(C)C)cc1-2 [4j]	124.0-126.0 °C
CCNS(=O)(=O)c1cc(C)c2cc(C(C)C)ccc(C)c1-2 [4h]	123.5-125.5 °C
COc1ccc(NS(=O)(=O)c2cc(C)c3cc(C(C)C)ccc(C)c2-3)c(OC)c1 [4b]	114.0-115.5 °C
Cc1cc(S(=O)(=O)[O-])c2c(C)ccc(C(C)C)cc1-2.[Na+] [Azulene sulfonate sodium, reference compound]	104.0-106.0 °C
Cc1cc(S(=O)(=O)Nc2cccc3ccccc23)c2c(C)ccc(C(C)C)cc1-2 [4d]	140.0-142.5 °C
Cc1cc(S(=O)(=O)NCC(C)C)c2c(C)ccc(C(C)C)cc1-2 [4e]	117.0-118.0 °C
Cc1cc(S(=O)(=O)Nc2cccc(Br)c2)c2c(C)ccc(C(C)C)cc1-2 [4a]	172.5-174.0 °C
Cc1cc(S(=O)(=O)NC(C)C)c2c(C)ccc(C(C)C)cc1-2 [4c]	127.5-130.0 °C

Tell us which Melting point Day 0 value is on record for Cc1ccc(NS(=O)(=O)c2cc(C)c3cc(C(C)C)ccc(C)c2-3)cc1 [4g]
146.0-148.5 °C

Tell us which Melting point Day 0 value is on record for Cc1cc(S(=O)(=O)Nc2ccc(Cl)cc2)c2c(C)ccc(C(C)C)cc1-2 [4k]
134.5-135.0 °C

---

Test: High-temperature test (60° C.), stability study
Assay type: physicochemical
Conditions: open-stored, Day 10
property measured: Melting point Day 10

Tell us which Melting point Day 10 value is on record for Cc1cc(S(=O)(=O)NC2CCCCC2)c2c(C)ccc(C(C)C)cc1-2 [4i]
107.0-108.5 °C

---

Experiment: High humidity test (25° C., relative humidity 90% ± 5%), stability study;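 also: samples kept uncovered in sealed humidity desiccators, appearance judged mainly by colour change, melting point on an automatic apparatus, TLC checked for extra spots versus start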
Assay type: physicochemical
Settings: RH 90% ± 5%, Day 0, cell wraps, first line given
property measured: Appearance Day 0

Please review the entries below; each comes with its answer.
compound	Appearance Day 0
Cc1cc(S(=O)(=O)Nc2ccc(Cl)cc2)c2c(C)ccc(C(C)C)cc1-2 [4k]	purple
Cc1cc(S(=O)(=O)NC2CCCCC2)c2c(C)ccc(C(C)C)cc1-2 [4i]	purple
COc1ccc(NS(=O)(=O)c2cc(C)c3cc(C(C)C)ccc(C)c2-3)c(OC)c1 [4b]	purple
Cc1cc(S(=O)(=O)NCC(C)C)c2c(C)ccc(C(C)C)cc1-2 [4e]	purple
CCNS(=O)(=O)c1cc(C)c2cc(C(C)C)ccc(C)c1-2 [4h]	blue
Cc1cc(S(=O)(=O)[O-])c2c(C)ccc(C(C)C)cc1-2.[Na+] [Azulene sulfonate sodium, reference compound]	dark

Tell us which Appearance Day 0 value is on record for CCCNS(=O)(=O)c1cc(C)c2cc(C(C)C)ccc(C)c1-2 [4f]
purple

Tell us which Appearance Day 0 value is on record for Cc1cc(S(=O)(=O)NCc2ccccc2)c2c(C)ccc(C(C)C)cc1-2 [4j]
dark

Tell us which Appearance Day 0 value is on record for Cc1cc(S(=O)(=O)Nc2cccc3ccccc23)c2c(C)ccc(C(C)C)cc1-2 [4d]
purple

Tell us which Appearance Day 0 value is on record for Cc1cc(S(=O)(=O)Nc2ccc(N)cc2)c2c(C)ccc(C(C)C)cc1-2 [4l]
purple

Tell us which Appearance Day 0 value is on record for Cc1cc(S(=O)(=O)NC(C)C)c2c(C)ccc(C(C)C)cc1-2 [4c]
purple

Tell us which Appearance Day 0 value is on record for Cc1ccc(NS(=O)(=O)c2cc(C)c3cc(C(C)C)ccc(C)c2-3)cc1 [4g]
purple

Tell us which Appearance Day 0 value is on record for Cc1cc(S(=O)(=O)Nc2cccc(Br)c2)c2c(C)ccc(C(C)C)cc1-2 [4a]
purple

---

Assay: High-temperature test (60° C.), stability study;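 also: samples kept uncovered in dishes at 60 °C for up to 10 days and examined on Day 5 and Day 10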
Assay type: physicochemical
Conditions: open-stored, Day 5, cell wraps, first line given

smiles notation	Appearance Day 5
COc1ccc(NS(=O)(=O)c2cc(C)c3cc(C(C)C)ccc(C)c2-3)c(OC)c1	purple
Cc1cc(S(=O)(=O)Nc2ccc(N)cc2)c2c(C)ccc(C(C)C)cc1-2	purple
Cc1cc(S(=O)(=O)Nc2cccc(Br)c2)c2c(C)ccc(C(C)C)cc1-2	purple
CCNS(=O)(=O)c1cc(C)c2cc(C(C)C)ccc(C)c1-2	blue

---

Experiment: Intense light irradiation test (4500LX ± 500LX), stability study
Type: physicochemical
Settings: Day 0, cell wraps, first line given
property measured: Appearance Day 0

smiles notation	property measured	experimental result
Cc1cc(S(=O)(=O)NC(C)C)c2c(C)ccc(C(C)C)cc1-2	Appearance Day 0	purple
CCCNS(=O)(=O)c1cc(C)c2cc(C(C)C)ccc(C)c1-2	Appearance Day 0	purple
CCNS(=O)(=O)c1cc(C)c2cc(C(C)C)ccc(C)c1-2	Appearance Day 0	blue
Cc1cc(S(=O)(=O)Nc2cccc3ccccc23)c2c(C)ccc(C(C)C)cc1-2	Appearance Day 0	purple

---

Test: Intense light irradiation test (4500LX ± 500LX), stability study
Type: physicochemical
Details: Day 0
property measured: Melting point Day 0

Please review the entries below; each comes with its answer.
compound	Melting point Day 0
Cc1cc(S(=O)(=O)NCc2ccccc2)c2c(C)ccc(C(C)C)cc1-2 [4j]	124.0-125.5 °C
CCNS(=O)(=O)c1cc(C)c2cc(C(C)C)ccc(C)c1-2 [4h]	123.5-125.5 °C
Cc1cc(S(=O)(=O)Nc2ccc(Cl)cc2)c2c(C)ccc(C(C)C)cc1-2 [4k]	134.5-135.0 °C
Cc1cc(S(=O)(=O)Nc2ccc(N)cc2)c2c(C)ccc(C(C)C)cc1-2 [4l]	87.5-89.0 °C
Cc1cc(S(=O)(=O)NCC(C)C)c2c(C)ccc(C(C)C)cc1-2 [4e]	117.0-118.0 °C
Cc1cc(S(=O)(=O)Nc2cccc3ccccc23)c2c(C)ccc(C(C)C)cc1-2 [4d]	140.0-142.5 °C
Cc1cc(S(=O)(=O)NC2CCCCC2)c2c(C)ccc(C(C)C)cc1-2 [4i]	107.5-108.5 °C
Cc1ccc(NS(=O)(=O)c2cc(C)c3cc(C(C)C)ccc(C)c2-3)cc1 [4g]	146.0-148.5 °C
CCCNS(=O)(=O)c1cc(C)c2cc(C(C)C)ccc(C)c1-2 [4f]	59.5-62.5 °C
Cc1cc(S(=O)(=O)[O-])c2c(C)ccc(C(C)C)cc1-2.[Na+] [Azulene sulfonate sodium, reference compound]	104.0-106.0 °C

Tell us which Melting point Day 0 value is on record for Cc1cc(S(=O)(=O)Nc2cccc(Br)c2)c2c(C)ccc(C(C)C)cc1-2 [4a]
172.5-174.0 °C

Tell us which Melting point Day 0 value is on record for Cc1cc(S(=O)(=O)NC(C)C)c2c(C)ccc(C(C)C)cc1-2 [4c]
127.5-130.0 °C
